test system: nicotinic receptors; test: Ligand fishing with CMNPs with immobilized nicotinic receptors, artificial mixture of known binders and non-binders; type: binding; conditions: equimolar (100 nM) artificial mixture; three washes with ammonium acetate buffer; elution buffer:methanol (9:1, v/v)
Readout label: retention by CMNPs with immobilized nicotinic receptors (washing/elution, HPLC)

>>> print(df.to_string())
                                   compound          system_name           test_result
0       CN1CCCC1c1cccnc1 (stereo not drawn)  nicotinic receptors  selectively retained
1            O=c1cccc2n1C[C@@H]1CNC[C@H]2C1  nicotinic receptors  selectively retained
2                   c1cncc([C@@H]2CCCCN2)c1  nicotinic receptors  selectively retained
3  COc1ccc2cc3[n+](cc2c1OC)CCc1cc2c(cc1-3)OCO2  nicotinic receptors               absence
4  CCCC(=O)OCC[N+](C)(C)C.[I-] [butyrylcholine, butyrylcholine iodide]  nicotinic receptors               absence

Pending compound:
## Task State its retention by CMNPs with immobilized nicotinic receptors (washing/elution, HPLC) for this compound: `O=C(O)/C=C/c1ccc(O)c(O)c1`
## Result absence
